- test_parameters: in methyl acetate, 293.15 K
observed_property: solubility (mole fraction)
Could you keep your reply to the number by itself?

Prompt: I am curious: what solubility (mole fraction) value has been reported for "O=C(NC[C@H]1CN(c2ccc(N3CCOCC3=O)cc2)C(=O)O1)c1ccc(Cl)s1" ?
Completion: 7.79e-05

---

- test_parameters: in acetonitrile, 278.15 K
observed_property: solubility (mole fraction)
Could you keep your reply to the number by itself?

Prompt: I am curious: what solubility (mole fraction) value has been reported for "O=C(NC[C@H]1CN(c2ccc(N3CCOCC3=O)cc2)C(=O)O1)c1ccc(Cl)s1" ?
Completion: 6.11e-05

---

- test_parameters: in 3-pentanone, 308.15 K
observed_property: solubility (mole fraction)
Could you keep your reply to the number by itself?

Prompt: I am curious: what solubility (mole fraction) value has been reported for "O=C(NC[C@H]1CN(c2ccc(N3CCOCC3=O)cc2)C(=O)O1)c1ccc(Cl)s1" ?
Completion: 0.000115

---

- test_parameters: in methyl acetate, 288.15 K
observed_property: solubility (mole fraction)
Could you keep your reply to the number by itself?

Prompt: I am curious: what solubility (mole fraction) value has been reported for "O=C(NC[C@H]1CN(c2ccc(N3CCOCC3=O)cc2)C(=O)O1)c1ccc(Cl)s1" ?
Completion: 6.31e-05

---

- test_parameters: in acetonitrile, 303.15 K
observed_property: solubility (mole fraction)
Could you keep your reply to the number by itself?

Prompt: I am curious: what solubility (mole fraction) value has been reported for "O=C(NC[C@H]1CN(c2ccc(N3CCOCC3=O)cc2)C(=O)O1)c1ccc(Cl)s1" ?
Completion: 0.000178

---

- test_parameters: in 1,4-dioxane, 318.15 K
observed_property: solubility (mole fraction)
Could you keep your reply to the number by itself?

Prompt: I am curious: what solubility (mole fraction) value has been reported for "O=C(NC[C@H]1CN(c2ccc(N3CCOCC3=O)cc2)C(=O)O1)c1ccc(Cl)s1" ?
Completion: 0.000363

---

- test_parameters: in 1,4-dioxane, 303.15 K
observed_property: solubility (mole fraction)
Could you keep your reply to the number by itself?

Prompt: I am curious: what solubility (mole fraction) value has been reported for "O=C(NC[C@H]1CN(c2ccc(N3CCOCC3=O)cc2)C(=O)O1)c1ccc(Cl)s1" ?
Completion: 0.000224
